# experimental system: T1, cynomolgus CD3e (cynomolgus, UniProt Q95LI5 22-117)
# T1 chain: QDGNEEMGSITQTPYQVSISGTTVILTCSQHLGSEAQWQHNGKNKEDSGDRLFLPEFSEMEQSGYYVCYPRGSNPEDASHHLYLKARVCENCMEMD
# method: SPR
endpoint name: Kd (nM)
Express your answer in nM, writing the number without its unit.

Guide cases for Kd, answers given:
BKM0028 (humanized anti-CD3 antibody molecule) (antibody, V domains shown, Captured via anti-human Fc antibody in SPR; constant regions not tied) VH: QVQLVQSGAEVKKPGASVKVSCKASGYTFTTYWMHWVRQAPGKGLEWMGNFNPNNGDTNYNEKFKTRVTMTVDKSTSTAYMELSSLRSEDTAVYYCARDDYGRYYFDYWGQGTLVTVSS VL: EIVMTQSPATLSLSPGERATLSCKSSQSLLNSRTRKNYLAWYQQKPGLAPRLLIYWAFTRESGIPDRFSGSGSGTDFTLTISRLEPEDFAVYYCKQSFILRTFGGGTKVEIK | 14.1
BKM0020 (humanized anti-CD3 antibody molecule) (antibody, V domains shown, Captured via anti-human Fc antibody in SPR, so it carries a human Fc; constant regions not tied) VH: QVQLVQSGAEVKKPGASVKVSCKASGYTFTTYWMHWVRQAPGQGLEWMGNFNPNNGDTNYNEKFKTRVTMTVDKSTSTAYMELRSLRSDDMAVYYCARDDYGRYYFDYWGQGTLVTVSS VL: DIQMTQSPSTLSASVGDRVTITCKSSQSLLNSRTRKNYLAWYQQKPGKAPKLLIYWAFTRESGVPSRFSGSGSGTEFTLTISSLQPDDFATYYCKQSFILRTFGGGTKVEIK | 9.98
BKM0038 (humanized anti-CD3 antibody molecule) (antibody, V domains shown, Captured via anti-human Fc antibody in SPR; constant regions not tied) VH: QVQLVQSGAEVKKPGASVKVSCKASGYTFTTYWMHWVRQAPGKGLEWMGNFNPNNGDTNYNEKFKTRVTMTVDKSTSTAYMELSSLRSEDTAVYYCARDDYGRYYFDYWGQGTLVTVSS VL: DIQMTQSPSSLSASVGDRVTITCKSSQSLLNSRTRKNYLAWYQQKPGKAPKLLIYWAFTRESGVPSRFSGSGSGTDFTLTISSLQPEDFATYYCKQSFILRTFGGGTKVEIK | 14.1

Continue with the binder presented below.
Query :: Tell me Kd reported for BKM0025 (humanized anti-CD3 antibody molecule) (antibody, V domains shown, Captured via anti-human Fc antibody in SPR; constant regions not tied) VH: QVQLVQSGAEVKKPGASVKVSCKASGYTFTTYWMHWVRQAPGQGLEWMGNFNPNNGDTNYNEKFKTRVTMTVDKSTSTAYMELRSLRSDDMAVYYCARDDYGRYYFDYWGQGTLVTVSS VL: EIVMTQSPATLSLSPGERATLSCKSSQSLLNSRTRKNYLAWYQQKPGLAPRLLIYWAFTRESGIPDRFSGSGSGTDFTLTISRLEPEDFAVYYCKQSFILRTFGGGTKVEIK
Result :: 18.3
